Source of measurements: patent US11746100B2

TARGET_OR_SYSTEM: human ferroportin (Homo sapiens)
Construct: luciferase reporter (read with the Nano-Glo Luciferase Assay System); expressed in transfected cells; host or cells: CHO cells, stably transfected, expression induced with doxycycline
Sequence (Q9NP59 whole entry): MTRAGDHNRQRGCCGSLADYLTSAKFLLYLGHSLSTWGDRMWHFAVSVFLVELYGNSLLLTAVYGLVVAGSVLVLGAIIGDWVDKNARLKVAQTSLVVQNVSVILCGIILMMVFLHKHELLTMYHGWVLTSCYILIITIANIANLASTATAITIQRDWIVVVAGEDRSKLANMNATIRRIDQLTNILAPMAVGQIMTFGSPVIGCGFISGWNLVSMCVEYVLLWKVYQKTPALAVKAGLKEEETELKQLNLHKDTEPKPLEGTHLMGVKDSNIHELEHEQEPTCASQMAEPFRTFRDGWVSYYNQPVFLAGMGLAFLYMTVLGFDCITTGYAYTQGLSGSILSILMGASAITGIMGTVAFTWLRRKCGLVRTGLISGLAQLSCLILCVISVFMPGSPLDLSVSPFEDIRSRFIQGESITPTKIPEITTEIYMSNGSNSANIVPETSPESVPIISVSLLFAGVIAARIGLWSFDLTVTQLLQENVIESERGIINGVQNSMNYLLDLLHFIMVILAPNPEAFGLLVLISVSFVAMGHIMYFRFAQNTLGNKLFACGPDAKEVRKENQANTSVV
MEASUREMENT_PROTOCOL: Biological in-vitro ferroportin internalization assay (luciferase reporter)
Type: cell-based
DETAILS: average pEC50; stably-transfected CHO cell line expressing human ferroportin tagged to a luciferase reporter; 6 h incubation with test compound
RECORDED_ENDPOINT: pEC50

As a guide, the following entries are already answered.
CN(CC(=O)Nc1ccccc1)c1nc(-c2ccccn2)nc2c1CCC2 [Compound 77]    7
CN(CC(=O)N1CCOCC1)c1nc(-c2cc(OCC(C)(C)O)ccn2)nc2c1CCC2 [Compound 399]    7.5
CN(CC(=O)NC1(C)CCCCC1)c1nc(-c2ccccn2)nc2c1CCC2 [Compound 25]    7.1
CN(CC(=O)Nc1cnn(C)c1)c1nc(-c2cc(OCC(F)(F)F)ccn2)nc2c1CCC2 [Compound 177]    6.9
COc1cnc(NC(=O)CN(C)c2nc(-c3cc(OCCO)ccn3)nc3c2CCC3)nc1 [Compound 295]    7
CN(c1nc(-c2ccccn2)nc2c1CCC2)C(C)(C)C(=O)NC(C)(C)C [Compound 19]    5.4
CN(CC(=O)N1CCC(F)(F)CC1)c1nc(-c2cc(OCCO)ccn2)nc2c1CCC2 [Compound 355]    7.7
COCc1ccnc(-c2nc3c(c(N(C)CC(=O)NC(C)(C)C)n2)CCC3)c1 [Compound 35]    7

A. COc1ccc(NC(=O)CN(C)c2nc(-c3cc(OCCO)ccn3)nc3c2CCC3)nn1 [Compound 285]
B. CN(CC(=O)NC(C)(C)C)c1nc(-c2ccn(C)n2)nc2c1CCC2 [Compound 160]
In terms of reported pEC50, does A or B have the smaller number? I would appreciate it if you answered with the label of your choice.
B
(B: 5.2, A: 7.8)
